# experimental system: UniProtKB Q01959
# Sequence (Q01959 whole entry): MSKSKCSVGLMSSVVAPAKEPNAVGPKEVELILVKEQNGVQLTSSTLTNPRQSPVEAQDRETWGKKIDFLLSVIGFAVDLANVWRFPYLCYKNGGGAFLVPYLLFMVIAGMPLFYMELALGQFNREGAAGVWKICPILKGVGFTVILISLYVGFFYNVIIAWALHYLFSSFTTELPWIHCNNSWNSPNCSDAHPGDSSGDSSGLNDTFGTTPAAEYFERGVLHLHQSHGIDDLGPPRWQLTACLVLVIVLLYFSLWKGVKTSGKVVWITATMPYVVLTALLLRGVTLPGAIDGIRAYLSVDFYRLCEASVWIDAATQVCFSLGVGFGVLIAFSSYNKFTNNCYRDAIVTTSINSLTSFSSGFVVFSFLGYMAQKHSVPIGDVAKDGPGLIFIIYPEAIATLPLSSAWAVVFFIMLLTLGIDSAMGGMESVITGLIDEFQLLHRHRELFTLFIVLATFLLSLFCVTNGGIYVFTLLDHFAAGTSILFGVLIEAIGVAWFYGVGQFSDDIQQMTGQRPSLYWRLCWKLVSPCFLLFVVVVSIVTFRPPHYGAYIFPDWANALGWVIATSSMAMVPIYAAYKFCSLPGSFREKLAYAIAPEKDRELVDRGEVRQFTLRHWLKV
Below, each entry is listed alongside its reported AC50.

In the examples that follow, each entry is paired with its recorded AC50.
| compound | result |
| --- | --- |
| c1ccc(C2(N3CCCCC3)CCCCC2)cc1 | 2.6 µM |
| CCOC(=O)c1ncn2c1CN(C)C(=O)c1cc(F)ccc1-2 | > 30 µM |
| COc1cc2[nH]c(C)c(CCN3CCN(c4ccccc4)CC3)c2cc1OC | 2.3 µM |
| CC1=C(C(=O)OC(C)C)C(c2cccc([N+](=O)[O-])c2)C(C(=O)OC2CN(C(c3ccccc3)c3ccccc3)C2)=C(N)N1 (configuration not stated) | 26 µM |
| Oc1ccc(CCNCCCCCCNCCc2ccccc2)cc1O | 0.5 µM |

Supply AC50 value. Item: COC(=O)C1=C(C)NC(C)=C(C(=O)OCCN2CCN(C(c3ccccc3)c3ccccc3)CC2)C1c1cccc([N+](=O)[O-])c1 (configuration not stated)
23 µM

Please list AC50 recorded for the compound CC(C(=O)O)c1ccc2c(c1)CC(=O)c1ccccc1S2 (configuration not stated)
> 30 µM

Given CCOC(=O)c1ccc(N)cc1 , respond with its AC50.
> 10 µM

* * *

The reader will find AC50 measurements below, all made with Adenosine receptor A2a (Homo sapiens, UniProt P29274).
Sequence (P29274 whole entry): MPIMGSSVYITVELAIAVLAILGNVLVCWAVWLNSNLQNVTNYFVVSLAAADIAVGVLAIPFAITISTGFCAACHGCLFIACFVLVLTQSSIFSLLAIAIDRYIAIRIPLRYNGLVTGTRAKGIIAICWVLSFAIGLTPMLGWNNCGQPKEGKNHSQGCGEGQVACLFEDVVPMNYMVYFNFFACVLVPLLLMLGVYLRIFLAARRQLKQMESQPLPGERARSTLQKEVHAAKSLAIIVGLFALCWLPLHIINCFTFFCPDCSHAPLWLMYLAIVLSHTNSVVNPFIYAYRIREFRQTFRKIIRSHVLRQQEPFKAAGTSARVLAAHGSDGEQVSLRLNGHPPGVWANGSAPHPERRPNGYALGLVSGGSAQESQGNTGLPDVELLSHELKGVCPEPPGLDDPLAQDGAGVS

| molecule | AC50 |
| --- | --- |
| CCOC(=O)C(C)(C)Oc1ccc(Cl)cc1 [CLOFIBRATE] | > 30 µM |
| NC(=O)NC(=O)Cc1ccccc1 [PHENACEMIDE] | > 10 µM |
| COc1cc(C)c(/C=C/C(C)=C/C=C/C(C)=C/C(=O)O)c(C)c1C | > 10 µM |
| CCOC(=O)c1ccc(C#Cc2ccc3c(c2)C(C)(C)CCS3)nc1 | > 30 µM |
| CC(=O)Nc1ccc(CC(=O)O)cc1 | > 30 µM |
| O=C(O)Cc1ccccc1Oc1ccc(Cl)cc1Cl | > 30 µM |
| O=C(CCCN1CCC(O)(c2ccc(Br)cc2)CC1)c1ccc(F)cc1 | > 30 µM |
| O=C1Cc2cc(CCN3CCN(c4nsc5ccccc45)CC3)c(Cl)cc2N1 | > 30 µM |
| CNCCc1ccc(OC(=O)C(C)C)c(OC(=O)C(C)C)c1 | > 30 µM |

Next:
Determine reported AC50 for Cn1cc(C(=O)[C@@H]2CCc3nc[nH]c3C2)c2ccccc21 ; test system: Adenosine receptor A2a (Homo sapiens, UniProt P29274). Also: assay procedure not described here.
> 30 µM

* * *

# experimental system: Progesterone receptor (Homo sapiens); also: assay procedure not described here
# Sequence (P06401 whole entry): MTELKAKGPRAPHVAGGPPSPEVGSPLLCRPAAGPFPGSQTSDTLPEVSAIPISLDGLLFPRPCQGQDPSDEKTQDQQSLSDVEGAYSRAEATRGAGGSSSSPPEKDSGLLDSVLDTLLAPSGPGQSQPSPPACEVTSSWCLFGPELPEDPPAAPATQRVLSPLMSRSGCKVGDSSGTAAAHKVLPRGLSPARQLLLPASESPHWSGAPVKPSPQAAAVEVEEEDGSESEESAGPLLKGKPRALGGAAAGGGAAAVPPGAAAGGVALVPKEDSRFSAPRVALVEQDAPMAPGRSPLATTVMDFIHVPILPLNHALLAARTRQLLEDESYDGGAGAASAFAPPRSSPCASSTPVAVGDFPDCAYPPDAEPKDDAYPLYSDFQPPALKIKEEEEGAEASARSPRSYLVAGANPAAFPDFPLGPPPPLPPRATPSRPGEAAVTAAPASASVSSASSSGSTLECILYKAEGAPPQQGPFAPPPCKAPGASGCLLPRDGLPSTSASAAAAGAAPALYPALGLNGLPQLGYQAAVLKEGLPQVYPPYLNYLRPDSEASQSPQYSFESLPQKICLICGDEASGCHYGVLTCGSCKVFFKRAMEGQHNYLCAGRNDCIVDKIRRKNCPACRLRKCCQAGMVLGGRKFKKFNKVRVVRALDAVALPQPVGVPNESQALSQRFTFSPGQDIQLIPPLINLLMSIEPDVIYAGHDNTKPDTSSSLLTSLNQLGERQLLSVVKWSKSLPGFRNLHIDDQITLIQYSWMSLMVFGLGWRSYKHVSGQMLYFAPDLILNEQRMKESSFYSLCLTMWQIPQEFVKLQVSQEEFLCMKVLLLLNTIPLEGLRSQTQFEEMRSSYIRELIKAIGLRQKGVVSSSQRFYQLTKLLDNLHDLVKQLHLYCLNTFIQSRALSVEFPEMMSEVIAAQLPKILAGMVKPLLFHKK
Measured AC50 values are reported for all entries that follow.

The examples below pair each entry with its known result.
| compound | experimental system | AC50 |
| --- | --- | --- |
| CCCNC(=O)NS(=O)(=O)c1ccc(Cl)cc1 [CHLORPROPAMIDE] | Progesterone receptor (Homo sapiens) | > 30 µM |
| CC[C@H](C)C(=O)O[C@H]1C[C@@H](C)C=C2C=C[C@H](C)[C@H](CC[C@@H]3C[C@@H](O)CC(=O)O3)[C@H]21 | Progesterone receptor (Homo sapiens) | 29.7 µM |
| CCOc1nc2cccc(C(=O)O)c2n1Cc1ccc(-c2ccccc2-c2nnn[nH]2)cc1 | Progesterone receptor (Homo sapiens) | > 30 µM |
| O=C(/C=C/c1cccc(S(=O)(=O)Nc2ccccc2)c1)NO | Progesterone receptor (Homo sapiens) | > 30 µM |
| CN[C@@H](C)[C@@H](O)c1ccccc1 | Progesterone receptor (Homo sapiens) | > 30 µM |
| O=C(O)COCCN1CCN(C(c2ccccc2)c2ccc(Cl)cc2)CC1 (configuration not stated) | Progesterone receptor (Homo sapiens) | > 30 µM |
| CCCc1nc2c(C)cc(-c3nc4ccccc4n3C)cc2n1Cc1ccc(-c2ccccc2C(=O)O)cc1 | Progesterone receptor (Homo sapiens) | > 30 µM |
| CN(CCOc1ccc(CC2SC(=O)NC2=O)cc1)c1ccccn1 (configuration not stated) | Progesterone receptor (Homo sapiens) | > 30 µM |
| O=C1Cc2cc(CCN3CCN(c4nsc5ccccc45)CC3)c(Cl)cc2N1 | Progesterone receptor (Homo sapiens) | 21.8 µM |
| Cc1ccc(C)c(OCCCC(C)(C)C(=O)O)c1 | Progesterone receptor (Homo sapiens) | > 30 µM |

Kindly indicate its recorded AC50. Item: CC(O)(CS(=O)(=O)c1ccc(F)cc1)C(=O)Nc1ccc(C#N)c(C(F)(F)F)c1 (configuration not stated) [BICALUTAMIDE]
> 30 µM

Let me know recorded AC50 for NNC(=O)c1ccncc1 , thanks.
> 30 µM

* * *

# experimental system: Beta-1 adrenergic receptor (Homo sapiens); also: assay procedure not described here
# Sequence (P08588 whole entry): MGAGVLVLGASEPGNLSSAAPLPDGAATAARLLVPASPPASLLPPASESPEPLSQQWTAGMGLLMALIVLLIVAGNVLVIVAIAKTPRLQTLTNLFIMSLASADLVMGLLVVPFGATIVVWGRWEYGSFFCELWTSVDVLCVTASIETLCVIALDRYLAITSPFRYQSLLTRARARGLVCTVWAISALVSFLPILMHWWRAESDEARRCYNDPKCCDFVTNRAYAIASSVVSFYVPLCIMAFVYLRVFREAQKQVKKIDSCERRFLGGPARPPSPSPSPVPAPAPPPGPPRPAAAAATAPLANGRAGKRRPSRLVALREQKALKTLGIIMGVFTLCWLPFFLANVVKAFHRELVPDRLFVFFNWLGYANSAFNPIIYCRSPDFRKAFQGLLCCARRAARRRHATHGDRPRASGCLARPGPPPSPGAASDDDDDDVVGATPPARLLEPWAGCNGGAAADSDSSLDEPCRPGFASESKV
# Assay type: functional
compounds and their reported AC50

| compound | AC50 |
| --- | --- |
| CC(Cc1cccc(C(F)(F)F)c1)NCCOC(=O)c1ccccc1 (stereo not given) | 5.7 µM |
| Cc1cccc(C)c1NC(=O)CC12CCCN1CCC2 [PILSICAINIDE] | > 30 µM |
| CC(C)[C@H](N)C(=O)OCCOCn1cnc2c(=O)[nH]c(N)nc21 | > 10 µM |
| OC[C@H]1O[C@@H](Oc2cc(O)cc(/C=C/c3ccc(O)cc3)c2)[C@H](O)[C@@H](O)[C@@H]1O | > 30 µM |

Okay, next one:
Tell me measured AC50 for Cc1ccc(C)c(OCCCC(C)(C)C(=O)O)c1 please.
> 10 µM

* * *

# experimental system: 5-hydroxytryptamine receptor 3A (Homo sapiens, UniProt P46098); also: assay procedure not described here
# Sequence (P46098 whole entry): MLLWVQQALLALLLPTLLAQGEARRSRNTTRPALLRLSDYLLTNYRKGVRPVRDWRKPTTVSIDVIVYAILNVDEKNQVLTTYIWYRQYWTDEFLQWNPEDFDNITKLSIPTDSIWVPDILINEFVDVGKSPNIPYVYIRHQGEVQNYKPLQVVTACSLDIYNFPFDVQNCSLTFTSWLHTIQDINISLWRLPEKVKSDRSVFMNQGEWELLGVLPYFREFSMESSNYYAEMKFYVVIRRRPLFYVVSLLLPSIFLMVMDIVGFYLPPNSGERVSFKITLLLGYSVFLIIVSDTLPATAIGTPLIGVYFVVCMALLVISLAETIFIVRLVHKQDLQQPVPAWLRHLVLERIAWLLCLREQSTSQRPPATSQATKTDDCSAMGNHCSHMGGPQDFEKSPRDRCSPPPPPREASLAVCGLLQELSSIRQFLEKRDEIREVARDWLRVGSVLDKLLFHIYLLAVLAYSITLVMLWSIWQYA
# Type: functional
measured parameter: AC50

For orientation, consider the following solved cases.
| compound | AC50 |
| --- | --- |
| CC(C)(Oc1ccc(CCNC(=O)c2ccc(Cl)cc2)cc1)C(=O)O [BEZAFIBRATE] | > 30 µM |
| Cc1ccnc2c1NC(=O)c1cccnc1N2C1CC1 | > 10 µM |
| NS(=O)(=O)c1cc2c(cc1Cl)N=C(CSCc1ccccc1)NS2(=O)=O [BENZTHIAZIDE] | > 10 µM |

Fill in reported AC50 for this entry: CCN1CC(CCN2CCOCC2)C(c2ccccc2)(c2ccccc2)C1=O (centres undefined)
> 30 µM

Look up AC50 of O=C1Nc2ccc(Cl)cc2C(c2ccccc2Cl)=NC1O (centres undefined) and report it.
> 30 µM

Quickly give me recorded AC50 for CCOC(=O)C(C)(C)Oc1ccc(Cl)cc1 [CLOFIBRATE]
> 30 µM

Kindly indicate its recorded AC50. Item: CCC(=O)O[C@]1(C(=O)CCl)[C@@H](C)C[C@H]2[C@@H]3CCC4=CC(=O)C=C[C@]4(C)[C@@]3(F)[C@@H](O)C[C@@]21C [CLOBETASOL PROPIONATE]
> 30 µM

Return AC50 for the following compound: CO[C@H]1C[C@H](O[C@H]2CC[C@@]3(C)[C@H](CC[C@@H]4[C@@H]3CC[C@]3(C)[C@@H](C5=CC(=O)OC5)[C@@H](OC(C)=O)C[C@]43O)C2)O[C@@H](C)[C@@H]1O
> 30 µM

Supply reported AC50 belonging to this compound: Fc1ccc([C@@H]2CCNC[C@H]2COc2ccc3c(c2)OCO3)cc1
> 10 µM

Consider the compound C[C@]12CCC(=O)C[C@@H]1CC[C@@H]1[C@@H]2CC[C@]2(C)[C@@H](O)CC[C@@H]12 . State its measured AC50.
> 30 µM

State its AC50: Cc1cc(C)nc(NS(=O)(=O)c2ccc(N)cc2)n1
> 30 µM

Supply reported AC50 belonging to this compound: c1ccc(C2(N3CCCCC3)CCCCC2)cc1
> 30 µM

Please list AC50 recorded for the compound CCc1nc(N)nc(N)c1-c1ccc(Cl)cc1
> 30 µM

Kindly indicate its recorded AC50. Item: CCCc1nc2c(C)cc(-c3nc4ccccc4n3C)cc2n1Cc1ccc(-c2ccccc2C(=O)O)cc1
> 30 µM
